Below, each of the compounds is paired with its reported IC50 value.
Test system: 168753-222-R-J1-PDC complex spheroid viability
Experiment: Anticancer human tumor 168753-222-R-J1-PDC patient-derived bladder carcinoma cell line growth inhibition [CLK]
Conditions: curve of first compound; second compound 0.316 µM

Before answering, review these 10 worked examples.
compound: Nc1ccn(C2OC(CO)C(O)C2(F)F)c(=O)n1 (stereo not given) + CNC(=O)c1ccc(Nc2nc(OC3CCCC3)c3c(-c4ccc5nc(C)oc5c4)c[nH]c3n2)c(OC)c1
measurement-target: 168753-222-R-J1-PDC complex spheroid viability
IC50: 157 nM
//
compound: CC(CO)NC(=O)c1cc(-c2ccc(Cl)cc2)nn(-c2cnn(C)c2)c1=O (stereo not given) + CNC(=O)c1ccc(Nc2nc(OC3CCCC3)c3c(-c4ccc5nc(C)oc5c4)c[nH]c3n2)c(OC)c1
measurement-target: 168753-222-R-J1-PDC complex spheroid viability
IC50: > 10000 nM
//
compound: Nc1ccccc1NC(=O)c1ccc(CNC(=O)OCc2cccnc2)cc1 + CN1CCN(c2cc(C(=O)Nc3cc4cc(-c5cnn(C)c5)ccc4cn3)ccn2)CC1
measurement-target: 168753-222-R-J1-PDC complex spheroid viability
IC50: < 31.6 nM
//
compound: CC(C)CC(NC(=O)C(Cc1ccccc1)NC(=O)c1cnccn1)B(O)O (stereo not given) + CNC(=O)c1ccc(Nc2nc(OC3CCCC3)c3c(-c4ccc5nc(C)oc5c4)c[nH]c3n2)c(OC)c1
measurement-target: 168753-222-R-J1-PDC complex spheroid viability
IC50: 1.8 nM
//
compound: C=CC(=O)N1CCN(c2nc(=O)n(-c3c(C)ccnc3C(C)C)c3nc(-c4c(O)cccc4F)c(F)cc23)C(C)C1 (stereo not given) + CNC(=O)c1ccc(Nc2nc(OC3CCCC3)c3c(-c4ccc5nc(C)oc5c4)c[nH]c3n2)c(OC)c1
measurement-target: 168753-222-R-J1-PDC complex spheroid viability
IC50: > 10000 nM
//
compound: COc1c(OCCCN2CCOCC2)ccc2c3n(c(=NC(=O)c4cnc(N)nc4)nc12)CCN3 + CN1CCN(c2cc(C(=O)Nc3cc4cc(-c5cnn(C)c5)ccc4cn3)ccn2)CC1
measurement-target: 168753-222-R-J1-PDC complex spheroid viability
IC50: < 3.16 nM
//
compound: CC1COCCN1c1cc(C2(S(C)(=N)=O)CC2)nc(-c2ccnc3[nH]ccc23)n1 (stereo not given) + CN1CCN(c2cc(C(=O)Nc3cc4cc(-c5cnn(C)c5)ccc4cn3)ccn2)CC1
measurement-target: 168753-222-R-J1-PDC complex spheroid viability
IC50: < 31.6 nM
//
compound: CC(CO)NC(=O)c1cc(-c2ccc(Cl)cc2)nn(-c2cnn(C)c2)c1=O (stereo not given) + CN1CCN(c2cc(C(=O)Nc3cc4cc(-c5cnn(C)c5)ccc4cn3)ccn2)CC1
measurement-target: 168753-222-R-J1-PDC complex spheroid viability
IC50: < 31.6 nM
//
compound: CC(Nc1ccc2c(c1)OCCn1cc(N3C(=O)OCC3C(F)F)nc1-2)C(N)=O (stereo not given) + CN1CCN(c2cc(C(=O)Nc3cc4cc(-c5cnn(C)c5)ccc4cn3)ccn2)CC1
measurement-target: 168753-222-R-J1-PDC complex spheroid viability
IC50: < 31.6 nM
//
compound: COc1cccc2c1C(=O)c1c(O)c3c(c(O)c1C2=O)CC(O)(C(=O)CO)CC3OC1CC(N)C(O)C(C)O1 (stereo not given) + CN1CCN(c2cc(C(=O)Nc3cc4cc(-c5cnn(C)c5)ccc4cn3)ccn2)CC1
measurement-target: 168753-222-R-J1-PDC complex spheroid viability
IC50: < 31.6 nM

# IC50 (compound: CC(=O)O[C@H]1C(=O)[C@@]2(C)[C@H]([C@H](OC(=O)c3ccccc3)[C@]3(O)C[C@H](OC(=O)[C@H](O)[C@@H](NC(=O)c4ccccc4)c4ccccc4)C(C)=C1C3(C)C)[C@]1(OC(C)=O)CO[C@@H]1C[C@@H]2O + CNC(=O)c1ccc(Nc2nc(OC3CCCC3)c3c(-c4ccc5nc(C)oc5c4)c[nH]c3n2)c(OC)c1 ) is > 10000 nM

IC50 reading for CC(C)CC(NC(=O)C(Cc1ccccc1)NC(=O)c1cnccn1)B(O)O (stereo not given) + CN1CCN(c2cc(C(=O)Nc3cc4cc(-c5cnn(C)c5)ccc4cn3)ccn2)CC1 : < 0.949 nM

Nc1ccn(C2OC(CO)C(O)C2(F)F)c(=O)n1 (stereo not given) + CN1CCN(c2cc(C(=O)Nc3cc4cc(-c5cnn(C)c5)ccc4cn3)ccn2)CC1 yielded IC50 of < 31.6 nM

Looking up COc1cccc2c1C(=O)c1c(O)c3c(c(O)c1C2=O)CC(O)(C(=O)CO)CC3OC1CC(N)C(O)C(C)O1 (stereo not given) + CNC(=O)c1ccc(Nc2nc(OC3CCCC3)c3c(-c4ccc5nc(C)oc5c4)c[nH]c3n2)c(OC)c1 , I see its IC50 listed as 141 nM

IC50 recorded for this compound, CC(Nc1ccc2c(c1)OCCn1cc(N3C(=O)OCC3C(F)F)nc1-2)C(N)=O (stereo not given) + CNC(=O)c1ccc(Nc2nc(OC3CCCC3)c3c(-c4ccc5nc(C)oc5c4)c[nH]c3n2)c(OC)c1 , is 45.8 nM

According to the records, this compound O=C(c1cc(Cc2n[nH]c(=O)c3ccccc23)ccc1F)N1CCN(C(=O)C2CC2)CC1 + CN1CCN(c2cc(C(=O)Nc3cc4cc(-c5cnn(C)c5)ccc4cn3)ccn2)CC1 displays IC50 of < 31.6 nM

IC50 in this record for C=CC(=O)N1CCN(c2nc(=O)n(-c3c(C)ccnc3C(C)C)c3nc(-c4c(O)cccc4F)c(F)cc23)C(C)C1 (stereo not given) + CN1CCN(c2cc(C(=O)Nc3cc4cc(-c5cnn(C)c5)ccc4cn3)ccn2)CC1 : < 31.6 nM

IC50 measured on NC(=O)C(=Cn1cnc(-c2cc(C(F)(F)F)cc(C(F)(F)F)c2)n1)c1cncnc1 + CN1CCN(c2cc(C(=O)Nc3cc4cc(-c5cnn(C)c5)ccc4cn3)ccn2)CC1 = < 9.49 nM

Lookup result for CC(=O)O[C@H]1C(=O)[C@@]2(C)[C@H]([C@H](OC(=O)c3ccccc3)[C@]3(O)C[C@H](OC(=O)[C@H](O)[C@@H](NC(=O)c4ccccc4)c4ccccc4)C(C)=C1C3(C)C)[C@]1(OC(C)=O)CO[C@@H]1C[C@@H]2O + CN1CCN(c2cc(C(=O)Nc3cc4cc(-c5cnn(C)c5)ccc4cn3)ccn2)CC1 ; measured IC50: < 31.6 nM

Briefly, IC50 measured for CCc1c2c(nc3ccc(O)cc13)-c1cc3c(c(=O)n1C2)COC(=O)[C@]3(O)CC + CNC(=O)c1ccc(Nc2nc(OC3CCCC3)c3c(-c4ccc5nc(C)oc5c4)c[nH]c3n2)c(OC)c1 : 51.8 nM

====

Overview of reported viability, T/C across a group of compounds:
Tested on: 168753-222-R-J1-PDC complex spheroid viability
Test: Anticancer human tumor 168753-222-R-J1-PDC cell line growth inhibition [CLK];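 also: viability measured after seven days of drug exposure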;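 as to viability, T/C: luminescence signal used as surrogate for viable cell amount; 100% = DMSO vehicle control wells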
Conditions: second compound 0.316 µM; first compound 3.16 µM; stronger effect = lower value
Numbers only; they are read as %.

Check out these entries, answers already filled in.
compound: O=C(c1cc(Cc2n[nH]c(=O)c3ccccc23)ccc1F)N1CCN(C(=O)C2CC2)CC1 + CN1CCN(c2cc(C(=O)Nc3cc4cc(-c5cnn(C)c5)ccc4cn3)ccn2)CC1
viability, T/C (%): 9.11

compound: CC(=O)O[C@H]1C(=O)[C@@]2(C)[C@H]([C@H](OC(=O)c3ccccc3)[C@]3(O)C[C@H](OC(=O)[C@H](O)[C@@H](NC(=O)c4ccccc4)c4ccccc4)C(C)=C1C3(C)C)[C@]1(OC(C)=O)CO[C@@H]1C[C@@H]2O + CN1CCN(c2cc(C(=O)Nc3cc4cc(-c5cnn(C)c5)ccc4cn3)ccn2)CC1
viability, T/C (%): 10.3

compound: Nc1ccccc1NC(=O)c1ccc(CNC(=O)OCc2cccnc2)cc1 + CNC(=O)c1ccc(Nc2nc(OC3CCCC3)c3c(-c4ccc5nc(C)oc5c4)c[nH]c3n2)c(OC)c1
viability, T/C (%): 63.1

compound: CC1(C)CCC(CN2CCN(c3ccc(C(=O)NS(=O)(=O)c4ccc(NCC5CCOCC5)c([N+](=O)[O-])c4)c(Oc4cnc5[nH]ccc5c4)c3)CC2)=C(c2ccc(Cl)cc2)C1 + CNC(=O)c1ccc(Nc2nc(OC3CCCC3)c3c(-c4ccc5nc(C)oc5c4)c[nH]c3n2)c(OC)c1
viability, T/C (%): 66.7

For the next question, use this compound.
Form: compound = CCCS(=O)(=O)Nc1ccc(F)c(C(=O)c2c[nH]c3ncc(-c4ccc(Cl)cc4)cc23)c1F + CN1CCN(c2cc(C(=O)Nc3cc4cc(-c5cnn(C)c5)ccc4cn3)ccn2)CC1 ; viability, T/C = 20.1
